Ref: paper PMC5715060

- targetEntity: HarmPBP1 mutant F12A (Helicoverpa armigera, UniProt F5ANH9, F39A)
- Sequence (F5ANH9 entry or part of it F39A): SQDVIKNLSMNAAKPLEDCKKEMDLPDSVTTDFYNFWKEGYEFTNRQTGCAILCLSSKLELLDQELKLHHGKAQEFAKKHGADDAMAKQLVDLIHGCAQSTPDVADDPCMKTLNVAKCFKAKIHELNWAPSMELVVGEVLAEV
- methodNotes: Fluorescence binding assay (1-NPN probe), mutant F12A
pKd: −log10 of the molar value.
assayMetric: pKd

c1ccc(Nc2cccc3ccccc23)cc1: 5.68

* * *

- targetEntity: HarmPBP1 (wild-type) (Helicoverpa armigera, UniProt F5ANH9)
- Sequence (F5ANH9 entry or part of it): as the sequence (F5ANH9 entry or part of it F39A) above, with A12F counted along it
- methodNotes: Fluorescence binding assay (1-NPN probe), wild-type HarmPBP1
- testConditions: wild-type HarmPBP1; pH 7.4; calculated from IC50, Ki = [IC50]/(1 + [1-NPN]/K1-NPN); read-out: Ki, dissociation constant
Entries annotated with measured Ki
assayMetric: Ki (nM)

CCCC/C=C\CCCCCCCCCC=O [Z11-16:Ald, (Z)-11-hexadecenal]: 670
CCCCCC/C=C\CCCCCCCC=O [Z9-16:Ald, (Z)-9-hexadecenal]: 560

* * *

- targetEntity: HarmPBP1 mutant F119A (Helicoverpa armigera, UniProt F5ANH9, F146A)
- Sequence (F5ANH9 entry or part of it F146A): as the sequence (F5ANH9 entry or part of it F39A) above, with A12F, F119A counted along it
- methodNotes: Fluorescence binding assay (1-NPN probe), mutant F119A
pKi: −log10 of the molar value.
assayMetric: pKi

CCCC/C=C\CCCCCCCCCC=O [Z11-16:Ald, (Z)-11-hexadecenal]: 5.29
CCCCCC/C=C\CCCCCCCC=O [Z9-16:Ald, (Z)-9-hexadecenal]: 5.34

* * *

- targetEntity: HarmPBP1 mutant Q64A (Helicoverpa armigera, UniProt F5ANH9, Q91A)
- Sequence (F5ANH9 entry or part of it Q91A): as the sequence (F5ANH9 entry or part of it F39A) above, with A12F, Q64A counted along it
- methodNotes: Fluorescence binding assay (1-NPN probe), control mutant Q64A
assayMetric: IC50 (nM)

CCCC/C=C\CCCCCCCCCC=O [Z11-16:Ald, (Z)-11-hexadecenal]: 1120
CCCCCC/C=C\CCCCCCCC=O [Z9-16:Ald, (Z)-9-hexadecenal]: 840

* * *

- targetEntity: HarmPBP1 mutant W37A (Helicoverpa armigera, UniProt F5ANH9, W64A)
- Sequence (F5ANH9 entry or part of it W64A): as the sequence (F5ANH9 entry or part of it F39A) above, with A12F, W37A counted along it
- methodNotes: Fluorescence binding assay (1-NPN probe), mutant W37A
assayMetric: Kd (nM)

c1ccc(Nc2cccc3ccccc23)cc1: 1870

* * *

- targetEntity: HarmPBP1 mutant W37A (Helicoverpa armigera, UniProt F5ANH9, W64A)
- methodNotes: Fluorescence binding assay (1-NPN probe), mutant W37A
- Procedure: Fluorescence binding assays were performed in a reaction system at pH7.4. Probed by 1-NPN, the maximum emission wavelengths of F12A, F36A, W37A, F119A and Q64A were in the range of 390–410 nm, which are similar to that of HarmPBP1 (400 nm). […]
pKi: −log10 of the molar value.
assayMetric: pKi

CCCC/C=C\CCCCCCCCCC=O [Z11-16:Ald, (Z)-11-hexadecenal]: 5.71
CCCCCC/C=C\CCCCCCCC=O [Z9-16:Ald, (Z)-9-hexadecenal]: 5.83

* * *

Entries annotated with measured Ki
- targetEntity: HarmPBP1 mutant F12A (Helicoverpa armigera, UniProt F5ANH9, F39A)
- methodNotes: Fluorescence binding assay (1-NPN probe), mutant F12A
assayMetric: Ki (µM)

CCCC/C=C\CCCCCCCCCC=O [Z11-16:Ald, (Z)-11-hexadecenal]: 3.1
CCCCCC/C=C\CCCCCCCC=O [Z9-16:Ald, (Z)-9-hexadecenal]: 3.06

* * *

Entries annotated with measured IC50
- targetEntity: HarmPBP1 mutant F36A (Helicoverpa armigera, UniProt F5ANH9, F63A)
- Sequence (F5ANH9 entry or part of it F63A): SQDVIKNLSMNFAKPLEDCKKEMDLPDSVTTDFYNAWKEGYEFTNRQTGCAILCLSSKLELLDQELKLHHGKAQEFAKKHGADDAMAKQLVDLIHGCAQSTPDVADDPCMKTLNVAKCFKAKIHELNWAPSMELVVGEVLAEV
- methodNotes: Fluorescence binding assay (1-NPN probe), mutant F36A
assayMetric: IC50 (nM)

CCCC/C=C\CCCCCCCCCC=O [Z11-16:Ald, (Z)-11-hexadecenal]: 1040
CCCCCC/C=C\CCCCCCCC=O [Z9-16:Ald, (Z)-9-hexadecenal]: 980
